Data provenance is ChEMBL document CHEMBL3611999.

experiment: Antagonist activity at nAChR in Sprague-Dawley rat striatal slices assessed as inhibition of nicotine-induced [3H]-dopamine release; details: Sprangue-Dawley
measured quantity: pIC50
Kindly note that pIC50 refers to -log10 of the concentration in mol/L and answer with the value alone.

Please give the measured pIC50 for this molecule: CO[C@H]1CC=C2CCN3CCC4=C(CC(=O)OC4)[C@]23C1
5.66

Please give the measured pIC50 for this molecule: CNC1(C)C2CCC(C2)C1(C)C (stereo not drawn)
6.52

Please give the measured pIC50 for this molecule: CCCCCC[n+]1cccc([C@@H]2CCCN2C)c1
5.05

Please give the measured pIC50 for this molecule: CN1CCC[C@H]1c1ccc[n+](CCCCCCCCCCNCC2CCc3ccc(O)cc3O2)c1 (mixture of isomers)
4.98

Please give the measured pIC50 for this molecule: CCCCCCCCCCCC[n+]1cccc([C@@H]2CCCN2C)c1
6.30

Please give the measured pIC50 for this molecule: CCCCC[n+]1cccc([C@@H]2CCCN2C)c1
4.82

Please give the measured pIC50 for this molecule: CN1CCC[C@H]1c1ccc[n+](CCCCCCNCC2CCc3ccc(O)cc3O2)c1 (mixture of isomers)
5.16

Please give the measured pIC50 for this molecule: CN1CCC[C@H]1c1ccc[n+](CCCCCNCC2CCc3ccc(O)cc3O2)c1 (mixture of isomers)
5.64

* * *

target: D(3) dopamine receptor (Homo sapiens, UniProt P35462)
Sequence (P35462 whole entry): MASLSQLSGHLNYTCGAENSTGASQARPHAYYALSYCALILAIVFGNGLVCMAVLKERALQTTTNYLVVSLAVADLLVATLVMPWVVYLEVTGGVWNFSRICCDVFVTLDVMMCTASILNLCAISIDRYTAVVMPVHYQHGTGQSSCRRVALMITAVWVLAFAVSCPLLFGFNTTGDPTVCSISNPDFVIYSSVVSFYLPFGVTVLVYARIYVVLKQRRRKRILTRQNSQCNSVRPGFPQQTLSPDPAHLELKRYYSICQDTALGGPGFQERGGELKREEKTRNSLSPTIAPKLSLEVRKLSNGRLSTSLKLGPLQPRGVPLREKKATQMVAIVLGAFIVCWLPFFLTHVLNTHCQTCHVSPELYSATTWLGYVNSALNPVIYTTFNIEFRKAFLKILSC
measured quantity: Ki (nM)
Numeric only. Scale: nM

Please give the measured Ki for this compound: CN1CCC[C@H]1c1ccc[n+](CCCCCCCCCCNCC2CCc3ccc(O)cc3O2)c1 (mixture of isomers)
3.3

Please give the measured Ki for this compound: CN1CCC[C@H]1c1ccc[n+](CCCCCNCC2CCc3ccc(O)cc3O2)c1 (mixture of isomers)
43

Please give the measured Ki for this compound: CN1CCC[C@H]1c1ccc[n+](CCCCCCNCC2CCc3ccc(O)cc3O2)c1 (mixture of isomers)
15.7

Please give the measured Ki for this compound: CN1CCC[C@H]1c1ccc[n+](CCCCCCCCCCCCNCC2CCc3ccc(O)cc3O2)c1 (mixture of isomers)
9.9

* * *

molecular target: Neuronal acetylcholine receptor subunit alpha-7 (Rattus norvegicus, UniProt Q05941); experiment: Displacement of [125I]alpha-bungarotoxin from alpha7 nAChR in Sprague-Dawley rat hippocampus membrane homogenates by gamma counting
Sequence (Q05941 whole entry): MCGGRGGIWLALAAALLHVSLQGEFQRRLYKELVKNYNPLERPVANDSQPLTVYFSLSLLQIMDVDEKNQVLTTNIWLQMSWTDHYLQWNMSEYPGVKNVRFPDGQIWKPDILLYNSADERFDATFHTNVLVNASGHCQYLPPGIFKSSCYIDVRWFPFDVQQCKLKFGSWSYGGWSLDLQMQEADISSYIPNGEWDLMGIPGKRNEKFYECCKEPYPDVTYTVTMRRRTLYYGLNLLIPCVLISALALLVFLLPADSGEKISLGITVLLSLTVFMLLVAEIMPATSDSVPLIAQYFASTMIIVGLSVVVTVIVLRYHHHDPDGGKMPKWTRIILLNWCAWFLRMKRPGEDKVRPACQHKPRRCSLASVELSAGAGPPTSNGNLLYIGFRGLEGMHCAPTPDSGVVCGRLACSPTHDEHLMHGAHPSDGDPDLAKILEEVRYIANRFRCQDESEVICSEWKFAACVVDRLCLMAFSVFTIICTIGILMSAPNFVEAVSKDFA
I'd appreciate it if you could supply pKi values for the items below.
Kindly note that pKi refers to -log10 of the concentration in mol/L and answer with the value alone.

What pKi appears in the records for this compound with Neuronal acetylcholine receptor subunit alpha-7 (Rattus norvegicus, UniProt Q05941)? CCCCCCCCCCCC[n+]1cccc([C@@H]2CCCN2C)c1
4.08

What pKi appears in the records for this compound with Neuronal acetylcholine receptor subunit alpha-7 (Rattus norvegicus, UniProt Q05941)? CN1CCC[C@H]1c1ccc[n+](CCCCCNCC2CCc3ccc(O)cc3O2)c1 (mixture of isomers)
4.96

What pKi appears in the records for this compound with Neuronal acetylcholine receptor subunit alpha-7 (Rattus norvegicus, UniProt Q05941)? CN1CCC[C@H]1c1ccc[n+](CCCCCCCCCCCCNCC2CCc3ccc(O)cc3O2)c1 (mixture of isomers)
4.19

What pKi appears in the records for this compound with Neuronal acetylcholine receptor subunit alpha-7 (Rattus norvegicus, UniProt Q05941)? CN1CCC[C@H]1c1ccc[n+](CCCCCCCCCCNCC2CCc3ccc(O)cc3O2)c1 (mixture of isomers)
4.37

What pKi appears in the records for this compound with Neuronal acetylcholine receptor subunit alpha-7 (Rattus norvegicus, UniProt Q05941)? CCCCCCCCCC[n+]1cccc([C@@H]2CCCN2C)c1
4.08

What pKi appears in the records for this compound with Neuronal acetylcholine receptor subunit alpha-7 (Rattus norvegicus, UniProt Q05941)? CN1CCC[C@H]1c1ccc[n+](CCCCCCNCC2CCc3ccc(O)cc3O2)c1 (mixture of isomers)
4.89
